Biological target: T1, Hof1, Q05080
T1 sequence (Q05080 590-669, looked up): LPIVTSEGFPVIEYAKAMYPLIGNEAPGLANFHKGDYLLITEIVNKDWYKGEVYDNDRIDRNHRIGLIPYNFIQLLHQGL
Experiment: SPOT array
Details: median of control spots 4086
metric name: SPOT intensity

Some solved cases for reference:
{"binder": "LASNSPPVYPKRIRH", "SPOT intensity": 1}
{"binder": "EVTPKVPERPSRRKT", "SPOT intensity": 28}
{"binder": "GSKSGPPPRPKKPST", "SPOT intensity": 0}
{"binder": "DHPKGPPPPPPPDEK", "SPOT intensity": 2}
{"binder": "KLSRGRYGLPLSSRP", "SPOT intensity": 8}

A. NFKRLLPRDPSEKSS
B. ALFRLSFFFPLDPAY
C. PHNPSPFFPPPDFND
Query block: Exam item: list the entries in increasing order of SPOT intensity. Your task in answering is to list the labels in the requested order.
Result block: C, A, B

1. QLMKNLPKIPLLNDI
2. KDKKTKPTPPPKPSH
3. VLRFLGFPLPIFEKG
Query block: Exam item: list the entries in increasing order of SPOT intensity. Your task in answering is to list the labels in the requested order.
Result block: 2, 3, 1
